Data provenance is paper PMC3845904.

biological target: human P450 1B1 (Homo sapiens, UniProt Q16678); experiment: Spectral binding titration; settings: purified P450 1B1 1.0 μM; means ± SEs; ND = not detected at 100 μM
Sequence (Q16678 whole entry): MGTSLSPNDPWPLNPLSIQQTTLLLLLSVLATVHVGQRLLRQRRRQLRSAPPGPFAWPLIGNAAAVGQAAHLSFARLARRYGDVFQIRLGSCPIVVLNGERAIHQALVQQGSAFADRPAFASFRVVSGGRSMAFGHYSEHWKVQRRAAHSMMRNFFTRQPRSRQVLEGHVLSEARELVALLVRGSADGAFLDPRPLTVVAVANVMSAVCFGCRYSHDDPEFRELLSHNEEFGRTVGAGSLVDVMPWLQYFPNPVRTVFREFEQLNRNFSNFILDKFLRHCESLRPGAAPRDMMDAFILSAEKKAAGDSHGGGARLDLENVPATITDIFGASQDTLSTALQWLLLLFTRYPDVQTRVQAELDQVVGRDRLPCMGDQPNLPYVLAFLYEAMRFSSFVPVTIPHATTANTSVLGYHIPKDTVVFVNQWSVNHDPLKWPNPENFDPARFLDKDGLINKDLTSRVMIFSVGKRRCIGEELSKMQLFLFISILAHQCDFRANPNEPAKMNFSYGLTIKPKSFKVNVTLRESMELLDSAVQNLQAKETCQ
Categories are defined by ranges of Reverse Type I spectra ΔAmax, namely lower bin: < 0.04; middle bin: ≥ 0.04 and < 0.07; upper bin: ≥ 0.07

{"columns": ["molecule", "classification"],
 "data": [
  ["C#CCOCc1ccccc1-c1ccccc1", "upper bin"],
  ["Oc1cc(O)cc(/C=C/c2ccc(O)c(O)c2)c1 [Piceatannol (Pice), Piceatannol, reference compound]", "lower bin"],
  ["c1ccc2c(c1)ccc1ccccc12 [Phenanthrene, phenanthrene, reference compound]", "middle bin"],
  ["CC#Cc1ccc(-c2ccccc2)cc1", "upper bin"],
  ["O=c1cc(-c2ccccc2)oc2c1ccc1ccccc12 [ANF, α-naphthoflavone, reference compound]", "upper bin"],
  ["O=c1cc(-c2ccccc2)oc2ccccc12 [flavone, reference compound]", "lower bin"],
  ["COc1cccc(-c2cc(=O)c3ccccc3o2)c1", "lower bin"],
  ["C#CCOc1ccccc1-c1ccccc1", "upper bin"],
  ["C#Cc1ccc(-c2ccccc2)cc1", "lower bin"],
  ["C#CCOc1ccc(-c2ccccc2)cc1", "middle bin"],
  ["Oc1ccc(/C=C/c2cc(O)cc(O)c2)cc1 [resveratrol (Res), resveratrol, reference compound]", "lower bin"],
  ["C=Cc1ccc2ccc3cccc4ccc1c2c34", "upper bin"],
  ["COc1cccc(-c2cc(=O)c3c(O)cc(O)cc3o2)c1 [3M57DHF, 3′-methoxy-5,7-dihydroxyflavone]", "upper bin"],
  ["CC#Cc1ccc2ccc3cccc4ccc1c2c34", "middle bin"],
  ["C#Cc1ccc2ccccc2c1", "middle bin"],
  ["COc1cccc(-c2cc(=O)c3ccc(O)c(O)c3o2)c1 [3M78DHF, 3′-methoxy-7,8-dihydroxyflavone]", "middle bin"],
  ["COc1ccc(-c2cc(=O)c3ccc(O)c(O)c3o2)cc1OC [34DM78DHF, 3′,4′-dimethoxy-7,8-dihydroxyflavone]", "middle bin"],
  ["CC#Cc1ccc2ccc3ccccc3c2c1", "middle bin"],
  ["C#Cc1ccc2ccc3cccc4ccc1c2c34", "middle bin"],
  ["COc1ccccc1-c1cc(=O)c2c(O)cc(O)cc2o1 [2M57DHF, 2′-methoxy-5,7-dihydroxyflavone]", "upper bin"]
]}
